- experimental target: human CD33 D298A (human, UniProt P20138 18-364)
- Sequence (P20138 18-364 D298A limits assumed): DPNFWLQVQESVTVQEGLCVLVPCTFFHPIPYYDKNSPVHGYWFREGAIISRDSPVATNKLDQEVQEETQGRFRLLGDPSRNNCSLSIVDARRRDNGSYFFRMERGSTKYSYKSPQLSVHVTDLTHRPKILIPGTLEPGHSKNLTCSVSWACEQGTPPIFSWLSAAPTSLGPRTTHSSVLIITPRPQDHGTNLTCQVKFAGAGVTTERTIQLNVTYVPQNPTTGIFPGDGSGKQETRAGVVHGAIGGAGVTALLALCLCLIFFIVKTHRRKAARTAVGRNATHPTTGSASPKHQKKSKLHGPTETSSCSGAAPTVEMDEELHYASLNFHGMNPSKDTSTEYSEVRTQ
- method summary: alanine scan, flow cytometry, HEK293-T;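 also: antibody binding to each alanine-substituted CD33 mutant expressed transiently in HEK293-T, read as fluorescence minus background, mean of duplicates, relative to wild-type CD33 set as 100%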
The reader will find reported Mean % WT Binding values listed item by item below.

binder	Mean % WT Binding (% WT binding)
Refmab #2 (antibody, V domains shown, The alanine scan used IgG or Fab) VH: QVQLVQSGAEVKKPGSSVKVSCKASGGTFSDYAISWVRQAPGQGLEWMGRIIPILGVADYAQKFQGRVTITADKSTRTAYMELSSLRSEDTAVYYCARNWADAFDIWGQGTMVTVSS VL: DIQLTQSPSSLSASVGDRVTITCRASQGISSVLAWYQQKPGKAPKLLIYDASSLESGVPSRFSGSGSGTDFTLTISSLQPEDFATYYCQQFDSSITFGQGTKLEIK	81.5
Refmab #4 (antibody, V domains shown, The alanine scan used IgG or Fab) VH: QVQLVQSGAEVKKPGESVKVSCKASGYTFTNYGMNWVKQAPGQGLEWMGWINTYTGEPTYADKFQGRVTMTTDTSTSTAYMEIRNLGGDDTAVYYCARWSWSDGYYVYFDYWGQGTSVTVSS VL: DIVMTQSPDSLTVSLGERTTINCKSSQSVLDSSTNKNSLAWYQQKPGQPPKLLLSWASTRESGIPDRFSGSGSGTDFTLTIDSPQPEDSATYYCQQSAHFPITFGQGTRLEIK	83.9
Refmab #3 (antibody, V domains shown, The alanine scan used IgG or Fab) VH: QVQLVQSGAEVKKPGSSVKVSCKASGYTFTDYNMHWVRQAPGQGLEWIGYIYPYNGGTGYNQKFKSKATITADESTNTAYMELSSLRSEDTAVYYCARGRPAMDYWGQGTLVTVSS VL: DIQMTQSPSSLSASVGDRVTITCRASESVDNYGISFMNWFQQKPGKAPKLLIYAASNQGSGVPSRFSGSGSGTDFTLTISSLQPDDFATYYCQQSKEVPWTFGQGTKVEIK	80.1
Refmab #1 (antibody, V domains shown, The alanine scan used IgG or Fab; also called hP67.6) VH: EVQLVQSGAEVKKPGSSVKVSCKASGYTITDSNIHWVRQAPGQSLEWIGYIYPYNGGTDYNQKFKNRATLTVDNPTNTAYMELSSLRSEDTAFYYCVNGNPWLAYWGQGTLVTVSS VL: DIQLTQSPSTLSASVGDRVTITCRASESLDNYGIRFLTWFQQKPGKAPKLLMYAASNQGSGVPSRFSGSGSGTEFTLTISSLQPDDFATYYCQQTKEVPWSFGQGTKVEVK	97.8
